Target: T1, human GLP-2R (human, UniProt O95838 1-553)
T1 sequence (looked up): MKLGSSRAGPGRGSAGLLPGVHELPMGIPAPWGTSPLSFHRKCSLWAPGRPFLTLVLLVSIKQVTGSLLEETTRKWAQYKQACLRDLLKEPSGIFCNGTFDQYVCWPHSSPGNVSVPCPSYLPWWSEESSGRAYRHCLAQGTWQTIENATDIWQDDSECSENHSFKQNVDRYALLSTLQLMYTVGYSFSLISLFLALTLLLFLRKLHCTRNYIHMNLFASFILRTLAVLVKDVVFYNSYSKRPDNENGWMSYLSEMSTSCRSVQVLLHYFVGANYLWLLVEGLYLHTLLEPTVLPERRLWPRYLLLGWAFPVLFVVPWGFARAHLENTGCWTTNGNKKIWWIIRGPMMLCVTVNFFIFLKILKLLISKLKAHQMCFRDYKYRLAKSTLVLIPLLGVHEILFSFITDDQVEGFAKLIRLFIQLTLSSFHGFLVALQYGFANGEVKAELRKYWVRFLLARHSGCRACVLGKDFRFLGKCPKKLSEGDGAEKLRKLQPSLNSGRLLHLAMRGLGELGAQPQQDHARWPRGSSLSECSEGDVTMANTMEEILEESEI
Assay: cell-based or functional assay
Bridges are numbered along the chain shown (N, C = ends). Where no end group is shown, it is not given here. [ ]: non-standard residue; d: D form. Nle = CCCC[C@H](N)C(=O)O; L5A = not defined here; A1 = not defined here; K5 = not defined here; Aib = CC(C)(N)C(=O)O
# reported GLP-2R - cAMP 0% FBS/nM (EC50, CRE-luciferase reporter); entries follow
Give the quantity in nM, number only.

Here's what some known entries look like.
binder: HGDGSFSDKMNTILDKLAARDFINWLIQTKITDPSSGAPPPS (bridge 9-16; not fully specified (bridges); ends not checked) [Conjugate 23: GLP2-2G-5K-EX4 (SEQ ID NO. 18) with staple K5 at positions 9, 16]
assay result: 1.25
--
binder: HGDGSFSDEMNTILDNKAARDFIKWLIQTKITDPSSGAPPPS (bridge 17-24 via A1; ends not checked) [Conjugate 20: GLP2-2G-1K-EX4 (SEQ ID NO. 16) with staple A1 at positions 17, 24]
assay result: 0.09
--
binder: HGDGSFSDELNTILDNCAARDFICWLIQTKITDPSSGAPPPS (linker 17-24 via L5A; reading uncertain) [Conjugate 3: GLP2-2G-10L-1-EX4 (SEQ ID NO. 3) with staple L5A at positions 17, 24]
assay result: 0.87
--
binder: HGDGSFSDE[Nle]NSLLDNKAARDFIKWLIQTKITDPSSGAPPPS (bridge 17-24; not fully specified (bridges); ends not checked) [Conjugate 13: GLP2-2G-10Nle-12S-13L-1K-EX4 (SEQ ID NO. 12) with staple K5 at positions 17, 24]
assay result: 3.78
--
binder: HGDGSFSDE[Aib]NTILDNCAARDFICWLIQTKITDPSSGAPPPS (linker 17-24 via L5A; reading uncertain) [Conjugate 5: GLP2-2G-10Aib-1-EX4 (SEQ ID NO. 5) with staple L5A at positions 17, 24]
assay result: 8.71
--
binder: HGDGSFSDK[Nle]NTILDKLAARDFINWLIQTKITDPSSGAPPPS (linker 9-16 via K5; reading uncertain) [Conjugate 24: GLP2-2G-10Nle-5K-EX4 (SEQ ID NO. 19) with staple K5 at positions 9, 16]
assay result: 8.36

Reported GLP-2R - cAMP 0% FBS/nM (EC50, CRE-luciferase reporter) ( HGDGSFSDEMNTILDNKAARDFIKWLIQTKITDPSSGAPPPS (bridge 17-24; not fully specified (bridges); ends not checked) [Conjugate 17: GLP2-2G-1K-EX4 (SEQ ID NO. 16) with staple K5 at positions 17, 24] ) = 1.07

Just so you know, measured GLP-2R - cAMP 0% FBS/nM (EC50, CRE-luciferase reporter) for HGDGSFSDEVNTILDNCAARDFICWLIQTKITDPSSGAPPPS (linker 17-24 via L5A; reading uncertain) [Conjugate 7: GLP2-2G-10V-1-EX4 (SEQ ID NO. 7) with staple L5A at positions 17, 24] came out at 1.45
